- assayed.target: human MOR (Homo sapiens, UniProt P35372)
- Sequence (P35372 whole entry): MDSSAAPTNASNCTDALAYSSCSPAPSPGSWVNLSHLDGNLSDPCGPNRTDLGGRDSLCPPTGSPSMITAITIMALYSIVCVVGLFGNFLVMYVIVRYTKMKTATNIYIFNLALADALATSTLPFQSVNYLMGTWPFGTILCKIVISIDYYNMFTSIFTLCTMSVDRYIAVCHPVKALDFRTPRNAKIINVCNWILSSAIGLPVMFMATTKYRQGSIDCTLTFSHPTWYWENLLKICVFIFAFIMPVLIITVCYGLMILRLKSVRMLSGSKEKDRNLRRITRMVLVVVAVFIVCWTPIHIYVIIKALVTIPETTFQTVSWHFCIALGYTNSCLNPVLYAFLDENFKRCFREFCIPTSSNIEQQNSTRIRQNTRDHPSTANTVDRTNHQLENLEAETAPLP
log10 of Ki values for the compounds below.
On a log10 scale: recorded Ki, unit nM.

# compound, log10 of Ki
measured = [
    ("Cc1cc(O)cc(C)c1C[C@H](N)C(=O)N1CCc2ccc(Cc3ccnc4ccccc34)cc2C1 [Compound 8u]", 0.82),
    ("Cc1cc(O)cc(C)c1C[C@H](N)C(=O)N1CCc2ccc(Cc3ccc4ccccc4c3)cc2C1 [Compound 8p]", 0.76),
    ("Cc1cc(O)cc(C)c1C[C@H](N)C(=O)N1CCc2ccc(CN3CCOCC3)cc2C1 [Compound 8n]", 1.59),
    ("Cc1cc(O)cc(C)c1C[C@H](N)C(=O)N1CCc2ccc(Cc3cccc4cccnc34)cc2C1 [Compound 8q]", 0.15),
]

Please turn your attention to the following entry.
Find log10 of Ki (human MOR (Homo sapiens, UniProt P35372)) for the entry Cc1cc(O)cc(C)c1C[C@H](N)C(=O)N1CCc2ccc(CN3CCCC3)cc2C1 [Compound 8m] 1.23

* * *

- assayed.target: human MOR (Homo sapiens)
outcome.measure: Ki (nM)
Report as a plain number; the unit nM is understood.

# sample.smiles, assayed.target, unit.text, Ki
data = [
    ("Cc1cc(O)cc(C)c1C[C@H](N)C(=O)N1CCc2ccc(Cc3ccccc3C(F)(F)F)cc2C1", "human MOR (Homo sapiens)", "nM", 4.3),
    ("COc1cccc(Cc2ccc3c(c2)CN(C(=O)[C@@H](N)Cc2c(C)cc(O)cc2C)CC3)c1", "human MOR (Homo sapiens)", "nM", 2.7),
    ("Cc1cc(O)cc(C)c1C[C@H](N)C(=O)N1CCc2ccc(Cc3cccc4ccncc34)cc2C1", "human MOR (Homo sapiens)", "nM", 1.8),
    ("Cc1cc(O)cc(C)c1C[C@H](N)C(=O)N1CCc2ccc(Cc3cncc4ccccc34)cc2C1", "human MOR (Homo sapiens)", "nM", 1.4),
    ("Cc1cc(O)cc(C)c1C[C@H](N)C(=O)N1CCc2ccc(CN3Cc4ccccc4C3)cc2C1", "human MOR (Homo sapiens)", "nM", 1.5),
]

Please state recorded Ki (tested on human MOR (Homo sapiens)) of Cc1cc(O)cc(C)c1C[C@H](N)C(=O)N1CCc2ccc(Cc3ccccc3O)cc2C1 1.2

What Ki appears in the records for this compound with human MOR (Homo sapiens)? Cc1cc(O)cc(C)c1C[C@H](N)C(=O)N1CCc2ccc(CN3CCc4ccccc43)cc2C1 2.2

Please tell me: Ki of Cc1cc(O)cc(C)c1C[C@H](N)C(=O)N1CCc2ccc(CN3CCc4ccccc4C3)cc2C1 , system human MOR (Homo sapiens)? 0.6

* * *

- assayed.target: human MOR (Homo sapiens, UniProt P35372)
- Construct: cell lines provided by Professor Lawrence Toll
- measurement.description: [35S]-GTPγS binding stimulation, MOR
- study.conditions: CHO-human MOR membranes; mean (SEM); * n = 2; dns = does not stimulate, average maximal stimulation <10% at up to 10 µM
A collection of molecules and their measured pEC50
For clarity, pEC50 is expressed as the negative log10 of concentration in mol/L.

In the examples that follow, each entry is paired with its recorded pEC50.
# sample.smiles, number
data = [
    ("Cc1cc(O)cc(C)c1C[C@H](N)C(=O)N1CCc2ccc(CN3CCCc4ccccc43)cc2C1", 7.14),
    ("Cc1cc(O)cc(C)c1C[C@H](N)C(=O)N1CCc2ccc(Cc3ccccc3C(F)(F)F)cc2C1", 7.28),
    ("Cc1cc(O)cc(C)c1C[C@H](N)C(=O)N1CCc2ccc(Cc3cccc4ccccc34)cc2C1", 6.88),
    ("COc1cccc(Cc2ccc3c(c2)CN(C(=O)[C@@H](N)Cc2c(C)cc(O)cc2C)CC3)c1", 7.62),
    ("Cc1cccc(Cc2ccc3c(c2)CN(C(=O)[C@@H](N)Cc2c(C)cc(O)cc2C)CC3)c1C", 6.42),
    ("Cc1cc(O)cc(C)c1C[C@H](N)C(=O)N1CCc2ccc(CN3CCc4ccccc43)cc2C1", 7.38),
]

GET /values?readout=pEC50&item= Cc1cc(O)cc(C)c1C[C@H](N)C(=O)N1CCc2ccc(Cc3cccnc3)cc2C1 6.84

Can you look up the measured pEC50 of Cc1cc(O)cc(C)c1C[C@H](N)C(=O)N1CCc2ccc(Cc3ccccc3C#N)cc2C1 for me? 6.18

* * *

Each entry below carries its recorded Emax.
- assayed.target: human KOR (Homo sapiens, UniProt P41145)
- Construct: expressed in transfected cells; cell lines provided by Professor Lawrence Toll
- Sequence (P41145 whole entry): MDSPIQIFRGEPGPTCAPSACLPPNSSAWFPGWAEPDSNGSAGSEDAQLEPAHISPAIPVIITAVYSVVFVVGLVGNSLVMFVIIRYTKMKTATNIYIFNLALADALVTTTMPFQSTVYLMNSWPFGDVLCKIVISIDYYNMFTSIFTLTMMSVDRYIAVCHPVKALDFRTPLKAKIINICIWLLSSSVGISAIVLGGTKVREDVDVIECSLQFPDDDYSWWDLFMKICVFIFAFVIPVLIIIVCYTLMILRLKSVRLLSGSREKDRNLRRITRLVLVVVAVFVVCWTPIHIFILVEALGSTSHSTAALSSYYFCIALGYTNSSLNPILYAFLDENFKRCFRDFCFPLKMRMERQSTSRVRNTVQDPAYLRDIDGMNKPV
- measurement.description: [35S]-GTPγS binding stimulation, KOR
- Format: biochemical
- study.conditions: versus 10 µM standard agonist U69,593; mean (SEM); dns = average maximal stimulation <10% at up to 10 µM
State just the number; it will be interpreted in %.

# sample.smiles, assayed.target, unit.text, Emax
records = [
    ("Cc1cc(O)cc(C)c1C[C@H](N)C(=O)N1CCc2ccc(Cc3cccc4ncccc34)cc2C1", "human KOR (Homo sapiens, UniProt P41145)", "%", 69),
    ("Cc1cc(O)cc(C)c1C[C@H](N)C(=O)N1CCc2ccc(Cc3cccc(C(F)(F)F)c3)cc2C1", "human KOR (Homo sapiens, UniProt P41145)", "%", 68),
    ("COc1ccccc1Cc1ccc2c(c1)CN(C(=O)[C@@H](N)Cc1c(C)cc(O)cc1C)CC2", "human KOR (Homo sapiens, UniProt P41145)", "%", 72),
    ("Cc1cc(O)cc(C)c1C[C@H](N)C(=O)N1CCc2ccc(Cc3cncc4ccccc34)cc2C1", "human KOR (Homo sapiens, UniProt P41145)", "%", 71),
    ("Cc1cc(O)cc(C)c1C[C@H](N)C(=O)N1CCc2ccc(Cc3ccncc3)cc2C1", "human KOR (Homo sapiens, UniProt P41145)", "%", 44),
    ("Cc1cc(O)cc(C)c1C[C@H](N)C(=O)N1CCc2ccc(Cc3cccc4ccccc34)cc2C1", "human KOR (Homo sapiens, UniProt P41145)", "%", 83),
    ("Cc1cc(O)cc(C)c1C[C@H](N)C(=O)N1CCc2ccc(Cc3cccnc3)cc2C1", "human KOR (Homo sapiens, UniProt P41145)", "%", 40),
    ("Cc1cc(O)cc(C)c1C[C@H](N)C(=O)N1CCc2ccc(CN3CCCc4ccccc43)cc2C1", "human KOR (Homo sapiens, UniProt P41145)", "%", 67),
]

// switching to the query compound
Quick check: Emax on human KOR (Homo sapiens, UniProt P41145), item Cc1cc(O)cc(C)c1C[C@H](N)C(=O)N1CCc2ccc(CN3CCc4ccccc43)cc2C1 ? 66

* * *

- assayed.target: human MOR (Homo sapiens, UniProt P35372)
- Construct: expressed in transfected cells; cell lines provided by Professor Lawrence Toll
- measurement.description: [35S]-GTPγS binding stimulation, MOR
- Type: biochemical
- study.conditions: CHO-human MOR membranes; mean (SEM); * n = 2; dns = does not stimulate, average maximal stimulation <10% at up to 10 µM
- Experimental: Each novel compound was evaluated for binding to and stimulation of KOR, MOR, and DOR. Binding affinity (Ki) was determined by competitive displacement of [^3H]-diprenorphine, a non-selective opioid receptor antagonist with similar affinity for each of the three receptors. Potency (EC50) and efficacy, expressed as percent stimulation compared to a standard agonist at each receptor, were determined by a [^35S]-GTPγS binding assay. […]
outcome.measure: EC50

# compound, EC50
data = [
    ("Cc1cc(O)cc(C)c1C[C@H](N)C(=O)N1CCc2ccc(Cc3ccc4ccccc4c3)cc2C1 [Compound 8p]", "176 nM"),
]

EC50 for Cc1cc(O)cc(C)c1C[C@H](N)C(=O)N1CCc2ccc(Cc3cccc4cnccc34)cc2C1 [Compound 8s] ? 43 nM

What does the data say about its EC50? Entry: Cc1cc(O)cc(C)c1C[C@H](N)C(=O)N1CCc2ccc(Cc3cccc4ncccc34)cc2C1 [Compound 8t] 54 nM

* * *

- assayed.target: human MOR (Homo sapiens)
- Construct: expressed in transfected cells; cell lines provided by Professor Lawrence Toll
- measurement.description: [35S]-GTPγS binding stimulation, MOR
- Format: biochemical
- study.conditions: versus 10 µM standard agonist DAMGO; mean (SEM); * n = 2; dns = average maximal stimulation <10% at up to 10 µM
Threshold 40%: Emax strictly smaller gives 1, otherwise -1.

# sample.smiles, classification
data = [
    ("Cc1cc(O)cc(C)c1C[C@H](N)C(=O)N1CCc2ccc(Cc3cccc4cnccc34)cc2C1", 1),
]

Confirm or reject: Emax of Cc1cc(O)cc(C)c1C[C@H](N)C(=O)N1CCc2ccc(Cc3ccccc3C(F)(F)F)cc2C1 lies strictly below 40% -1

Identify whether the molecule Cc1cc(O)cc(C)c1C[C@H](N)C(=O)N1CCc2ccc(Cc3cccc(C(F)(F)F)c3)cc2C1 records Emax below 40%. -1

Strictly below 40%: is that where Emax of Cc1cc(O)cc(C)c1C[C@H](N)C(=O)N1CCc2ccc(Cc3ccccc3O)cc2C1 sits? -1

State whether 40% exceeds Emax recorded for Cc1cc(O)cc(C)c1C[C@H](N)C(=O)N1CCc2ccc(CN3CCCc4ccccc43)cc2C1 . -1
